Tested on: SK-MEL-2 melanoma
experiment-description: NCI-60 one-dose screen, 48 h (100 = growth as untreated, 0 = no growth, -100 = all killed)
cond: 10 µM unless noted
The panel holds about 83,000 compounds, 20% with a hit somewhere; the sample as a whole holds those more often.
Category key, based on recorded growth: low range (below 40%), mid range (40% to below 90%), high range (90% or more)

Some solved cases for reference:
CN1C(=O)N(C)C2C1NN=c1s/c(=C\c3ccc(Cl)cc3Cl)c(=O)n12 (configuration not stated) = mid range
O=C1OC(c2ccccc2)(c2ccccc2)c2ccsc21 = high range
CC(=O)c1ccc(Cc2ccc(C(C)=O)s2)s1 = high range
CC1(C)CC2(C)OC2C2(C1)N=NC(=Nc1ccccc1)O2 (configuration not stated) = mid range
Cn1c(/C=C(\C#N)c2ccccc2)nc2c(N3CCOCC3)nc(Cl)nc21 = low range

input: Hi, small favor: classify `O=C1c2ccc3c4c(ccc(c24)C(=O)N1CCCCO)C(=O)N(CCCCO)C3=O` by its growth when you get a moment.
output: mid range

input: Hi, small favor: classify Oc1c(C(Nc2ccccn2)c2cccc(Oc3ccccc3)c2)ccc2cccnc12 (configuration not stated) by its growth when you get a moment.
output: low range

input: Hi, small favor: classify `COc1ccccc1C1=C(Br)C(=O)c2nc(C)ccc2C1=O` by its growth when you get a moment.
output: high range

input: Hi, small favor: classify `O=c1oc2ccc(-c3ccc(F)cc3F)cc2c(=O)n1-c1ccc(Cl)c(C(F)(F)F)c1` by its growth when you get a moment.
output: low range

input: Hi, small favor: classify CCOC(=O)C1=C(C)N=c2s/c(=C\c3cc(Cl)ccc3O)c(=O)n2C1c1ccc(OC)cc1 (configuration not stated) by its growth when you get a moment.
output: high range

input: Hi, small favor: classify `Cc1c(-c2csc(-n3nc(C(F)(F)F)cc3C(F)(F)F)n2)no[n+]1[O-]` by its growth when you get a moment.
output: high range

input: Hi, small favor: classify `O=C(COc1cc(O)c2c(=O)cc(-c3ccccc3)oc2c1)Nc1ccccc1` by its growth when you get a moment.
output: high range

input: Hi, small favor: classify CSc1nc2c(c(=O)[nH]1)N=C1c3ccccc3C(=O)C1C(c1ccc(F)cc1)N2 (configuration not stated) by its growth when you get a moment.
output: mid range

input: Hi, small favor: classify `COc1ccc2occ(C3=C(c4c[nH]c5ccccc45)C(=O)NC3=O)c2c1` by its growth when you get a moment.
output: mid range

###

System: OVCAR-5 ovarian
experiment-description: NCI-60 one-dose screen, 48 h (100 = growth as untreated, 0 = no growth, -100 = all killed)
cond: 10 µM unless noted
The panel holds about 83,000 compounds, 20% with a hit somewhere; the sample as a whole holds those more often.
parameter: growth (%)
The figure you give is taken to be in %; do not add the unit.

CC(=O)c1ccc(Nc2nc(NCCO)nc(Nc3ccc(Cl)cc3)n2)cc1 = 96.1

input: Tell me growth reported for COc1ccc(-n2c(C(O)c3ccccc3)n[nH]c2=S)cc1 (stereo not given)
output: 93.4

input: Tell me growth reported for `O=C(Nc1ccc(I)cc1F)c1cc(Br)ccc1O`
output: 23.7

input: Tell me growth reported for Clc1ccc(-c2nnc(COc3ccc(C4=NNC(c5ccco5)C4)cc3)o2)cc1 (stereo not given)
output: 95

input: Tell me growth reported for CCOC(=O)C1=C(C)N=c2s/c(=C\c3ccccc3O)c(=O)n2C1c1ccc(OC)c2ccccc12 (stereo not given)
output: 51.6
